meta.source: patent US8435939B2

Entries and their measured SI: CC50 (Test I)/EC50 follow.
Test system: virus-uninfected MT-4 cells
ASSAY_REMARKS: Cytotoxicity Test I: virus-uninfected MT-4 cells, MTT method
Type: cell-based
EXPERIMENTAL_CONTEXT: selective index, MT-4 CC50 over anti-HIV EC50
Where a SMILES comes first, the peptide text is derived from it. Bridges are numbered along the chain shown (N, C = ends). [ ]: non-standard residue; d: D form. 2Nal = N[C@@H](Cc1ccc2ccccc2c1)C(=O)O; Cit = NC(=O)NCCC[C@H](N)C(=O)O

• NCCCC[C@H]1NC(=O)[C@H](CCCNC(N)=O)NC(=O)[C@H](CCCN=C(N)N)NC(=O)[C@H](Cc2ccc(O)cc2)NC(=O)[C@@H](NC(=O)[C@H](Cc2ccc3ccccc3c2)NC(=O)[C@H](CCCN=C(N)N)NC(=O)[C@@H](N)CCCN=C(N)N)CSSC[C@@H](C(=O)N[C@@H](CCCN=C(N)N)C(=O)O)NC(=O)[C@H](CCCNC(N)=O)NC(=O)[C@H](CCCN=C(N)N)NC(=O)[C@H](Cc2ccc(O)cc2)NC(=O)[C@@H]2CCCN2C1=O [TC14004] (H-RR[2Nal]CYR[Cit][dK]PYR[Cit]CR-OH; disulfide 4-13) = >5000

Now, please, on to the next compound.
Query string: What value of measured SI: CC50 (Test I)/EC50 is listed for C[C@@H]1NC(=O)[C@H](Cc2ccc(O)cc2)NC(=O)[C@@H]2CCCN2C(=O)[C@@H](CCCCN)NC(=O)[C@H](CCCCN)NC(=O)[C@H](CCCNC(=N)N)NC(=O)[C@H](Cc2ccc(O)cc2)NC(=O)[C@@H](NC(=O)[C@H](Cc2ccc3ccccc3c2)NC(=O)[C@H](CCCNC(=N)N)NC(=O)[C@@H](N)CCCNC(=N)N)CSSC[C@@H](C(=O)N[C@@H](CCCNC(=N)N)C(=O)O)NC(=O)[C@H](CCCNC(N)=O)NC1=O [TA14010] (H-RR[2Nal]CYRK[dK]PYA[Cit]CR-OH; disulfide 4-13) ?
Result string: >4800
